Values from patent US20240158348A1

Below is a list of entries, each paired with its recorded Galium plant response rating value.
system: galium (catchweed bedstraw, Galium aparine); assay: Test C postemergence, galium; format: in vivo; details: 31 g ai/ha Postemergence; visual injury, 0 to 100 scale (0 no effect, 100 complete control)
Text: […]

C#CC(C)OC1CCN(c2cc(NS(=O)(=O)C(F)(F)F)c(C)cc2C)C1=O (centres unmarked) [Compound 58]    90

State, in one line, measured Galium plant response rating of Cc1c(N2CCC(OC3CCC3)C2=O)cc(N(COC(=O)C(C)(C)C)S(=O)(=O)C(F)(F)F)c(C)c1F (centres unmarked) [Compound 28]
90

Consider the molecule Cc1c(N2CCC(OC3CCC3)C2=O)cc(N(C(=O)OCC(C)C)S(=O)(=O)C(F)(F)F)c(C)c1C (centres unmarked) [Compound 48] . State its measured Galium plant response rating.
90

Supply recorded Galium plant response rating for COC(=O)N(c1cc(N2CCC(OC3CC3)C2=O)c(C)cc1Cl)S(=O)(=O)C(F)(F)F (centres unmarked) [Compound 40] here.
80

Return Galium plant response rating for the following molecule: CC(=O)N(c1cc(N2CCC(OC3CC3)C2=O)c(C)cc1Cl)S(=O)(=O)C(F)(F)F (centres unmarked) [Compound 38]
90

State, in one line, measured Galium plant response rating of Cc1cc(C)c(N(C(=O)OC(C)C)S(=O)(=O)C(F)(F)F)cc1N1CCC(OC2CC2)C1=O (centres unmarked) [Compound 18]
10

Consider the molecule Cc1c(N2CCC(OC3CC3)C2=O)cc(N(COC(=O)C(C)(C)C)S(=O)(=O)C(F)(F)F)c(C)c1F (centres unmarked) [Compound 23] . State its measured Galium plant response rating.
90

Dear colleague, please send me the reported Galium plant response rating for CC(=O)N(c1cc(N2CCC(OC3CC3)C2=O)c(C)cc1C)S(=O)(=O)C(F)(F)F (centres unmarked) [Compound 17] when you can.
90

Look up Galium plant response rating of Cc1c(N2CCC(OC3CC3)C2=O)cc(N(C(=O)OCC(C)C)S(=O)(=O)C(F)(F)F)c(C)c1C (centres unmarked) [Compound 50] and report it.
60
